- Tested on: OVCAR-8
- procedure_text: NCI tumour cell line growth inhibition, 48 h
Activity calls are given as the source filed them. Cut-off read from the data, not from the text of the source: active = GI50 up to about 1.1 µM and inactive = higher.
Tick one outcome: 1 = active, 0 = inactive

Some solved cases for reference:
{"compound": "CCn1cnnc1-c1nsc2ccccc12", "cat": 0}
{"compound": "O=C1NC2NC3NC(=O)NC3NC2N1 (stereo not drawn)", "cat": 0}

Okay, now this compound:
Fill in: this test's call for COc1cc2c(c(OC)c1OC)-c1ccc(SC)c(=O)cc1C(CC(=O)Oc1cccc([N+](=O)[O-])c1)C2 (stereo not drawn) is ___ 1

###

- System: Malme-3M
- procedure_text: NCI tumour cell line growth inhibition, 48 h
The source made the active and inactive calls. Cut-off read from the data, not from the text of the source: active = GI50 up to about 1.1 µM and inactive = higher.
Measured GI50 by item

Here is how some compounds turned out for GI50.
{"compound": "N/C(=N/O)N/N=C\\c1cc(Cl)cc(Cl)c1O", "GI50": "4.86 µM (inactive)"}
{"compound": "CC1(C)OCC=CCO1", "GI50": "> 100 µM (inactive)"}
{"compound": "CC(=O)OCc1nnn2c1C(OC(C)=O)CC2 (stereo not given)", "GI50": "> 100 µM (inactive)"}

Identify the measured GI50 of O=C1NC2NC3NC(=O)NC3NC2N1 (stereo not given) for Malme-3M. > 100 µM (inactive)

Identify the measured GI50 of Cc1ccc(C)c(NC2=NC(=O)C(CC(=O)Nc3ccc(Cl)cc3Cl)S2)c1 (stereo not given) for Malme-3M. 70.5 µM (inactive)

###

- Test system: A498
- procedure_text: NCI tumour cell line growth inhibition, 48 h
Activity calls are given as the source filed them. Rule as the data show it: active = GI50 up to about 1.1 µM and inactive = higher.
quantity_kind: GI50

Here is how some compounds turned out for GI50.
{"compound": "O=C(CC(O)(C(F)(F)F)C(F)(F)F)C(c1ccccc1)C(O)(C(F)(F)F)C(F)(F)F (stereo not given)", "quantity_kind": "GI50", "result": "13.9 µM (inactive)"}
{"compound": "CC(=O)N(C)c1ccc2ncccc2c1[N+](=O)[O-]", "quantity_kind": "GI50", "result": "> 100 µM (inactive)"}
{"compound": "N#Cc1c2c(c(Nc3ccc(F)cc3)n3c1nc1ccccc13)CCCC2", "quantity_kind": "GI50", "result": "> 100 µM (inactive)"}
{"compound": "O=c1c2cc([N+](=O)[O-])ccc2nc2n1CCCCC2", "quantity_kind": "GI50", "result": "87.9 µM (inactive)"}

I'd like to know its GI50. The compound in question is COc1cc(OC)c(OC)cc1/C=N/NC(=O)N/N=C/c1cc(OC)c(OC)cc1OC > 100 µM (inactive)

I'd like to know its GI50. The compound in question is O=C(/C=C/c1ccc(O)c(O)c1O)OCCc1ccccc1 74.6 µM (inactive)

###

- Test system: SNB-75
- procedure_text: NCI tumour cell line growth inhibition, 48 h
The source made the active and inactive calls. Rule as the data show it: active = GI50 up to about 1.1 µM and inactive = higher.
Measured GI50 by item

Here is how some compounds turned out for GI50.
{"compound": "CC(=O)OCC1OC(NC(=S)Nn2c(=O)[nH]c3ccccc3c2=O)C(OC(C)=O)C(OC(C)=O)C1OC(C)=O (stereo not given)", "quantity_kind": "GI50", "result": "> 100 µM (inactive)"}
{"compound": "Cc1cccc(/C=N/NC(=S)NC2CCCCC2)n1", "quantity_kind": "GI50", "result": "45.3 µM (inactive)"}
{"compound": "O=S(=O)(O)c1ccc2c(/N=N/c3ccccc3Cl)c(O)ccc2c1", "quantity_kind": "GI50", "result": "> 100 µM (inactive)"}
{"compound": "CCOC(=O)Nn1c(CC#N)nnc1Cc1ccccc1", "quantity_kind": "GI50", "result": "> 100 µM (inactive)"}

# context switch: different compound, same GI50
I'd like to know its GI50. The compound in question is CC(=O)OCC(OC(C)=O)C(OC(C)=O)C(/C=N\Nc1nc2ccccc2c(=O)[nH]1)OC(C)=O (stereo not given) > 100 µM (inactive)

###

- System: SK-MEL-2
- procedure_text: NCI tumour cell line growth inhibition, 48 h
The source made the active and inactive calls. No stated cut-off is given here; in the data, active = GI50 up to about 1.1 µM and inactive = higher.
quantity_kind: GI50

{"compound": "C[N+](C)([O-])CCC=C1c2ccccc2CCc2ccccc21", "target_of_assay": "SK-MEL-2", "GI50": "18.5 µM (inactive)"}
{"compound": "CC(/C=C/c1ccccc1)=N\\N=C(C)\\C=C\\c1ccccc1", "target_of_assay": "SK-MEL-2", "GI50": "> 100 µM (inactive)"}
{"compound": "CC(C)(C)[Si](C)(C)O[C@@H](C(=O)OC1C=CCCC1)[C@@H](NC(=O)c1ccccc1)c1ccccc1 (some centres not stated)", "target_of_assay": "SK-MEL-2", "GI50": "18 µM (inactive)"}
{"compound": "C/C(=N/NC(=S)Nc1ccccc1Cl)c1ccccn1", "target_of_assay": "SK-MEL-2", "GI50": "1.98 µM (inactive)"}
{"compound": "c1ccc(-c2csc3c2-n2cccc2C3N2CCCC2)cc1 (configuration not stated)", "target_of_assay": "SK-MEL-2", "GI50": "> 100 µM (inactive)"}

I'd like to know its GI50. The compound in question is N/C(=N\O)N/N=C/c1ccc2c(c1)OCCO2 9.08 µM (inactive)

I'd like to know its GI50. The compound in question is COc1ccc(-n2nnc(C(N)=O)c2O)cc1 > 100 µM (inactive)

###

Measured GI50 by item
- Tested on: MDA-MB-435
- procedure_text: NCI tumour cell line growth inhibition, 48 h
Calls of active or inactive are those of the source. Rule as the data show it: active = GI50 up to about 1.1 µM and inactive = higher.

Here is how some molecules turned out for GI50.
{"molecule": "CCOc1ccc(C(c2c(O)c3ccccc3oc2=O)c2c(O)c3ccccc3oc2=O)cc1", "target_of_assay": "MDA-MB-435", "quantity_kind": "GI50", "result": "70.3 µM (inactive)"}
{"molecule": "C/C(O[Si](C(C)C)(C(C)C)C(C)C)=C(\\C)C(=O)N(C)c1ccccc1Cl", "target_of_assay": "MDA-MB-435", "quantity_kind": "GI50", "result": "> 100 µM (inactive)"}
{"molecule": "NCc1ccc(-c2ccc(-c3ccc(-c4ccc(CN)s4)s3)s2)s1", "target_of_assay": "MDA-MB-435", "quantity_kind": "GI50", "result": "> 100 µM (inactive)"}
{"molecule": "COc1ccc(C)cc1N1C(=O)C2ON(Cc3ccc(CC(N)=O)cc3)C(c3c4ccccc4c(Cl)c4ccccc34)C2C1=O (stereo not given)", "target_of_assay": "MDA-MB-435", "quantity_kind": "GI50", "result": "21.9 µM (inactive)"}

I'd like to know its GI50. The molecule in question is CCOC(=O)C1(N)CCc2[nH][nH]c(=O)c2C1 (stereo not given) > 100 µM (inactive)

###

- System: M14
- procedure_text: NCI tumour cell line growth inhibition, 48 h
Active and inactive are the calls of the source. No stated cut-off is given here; in the data, active = GI50 up to about 1.1 µM and inactive = higher.
Measured GI50 by item

Here is how some compounds turned out for GI50.
{"compound": "O=S(=O)(/N=c1\\[nH]c(-c2cc(O)c(O)c(O)c2)cs1)c1ccc(Cl)cc1Cl", "GI50": "22.1 µM (inactive)"}
{"compound": "CN1C(=O)C2(C)SC1(c1ccccc1)C1C(=O)N(c3ccccc3)C(=O)C12 (stereo unspecified)", "GI50": "> 100 µM (inactive)"}
{"compound": "O/N=C/c1ncccc1C1OCCO1", "GI50": "> 100 µM (inactive)"}
{"compound": "COc1cccc(/C=C2\\CCC(CCN(C)C)(C3=CCCC3)C2=O)c1 (stereo unspecified)", "GI50": "14.4 µM (inactive)"}
{"compound": "CC1(C)OCC=CCO1", "GI50": "> 100 µM (inactive)"}

I'd like to know its GI50. The compound in question is Cc1n[nH]c(=O)n1N=C(c1ccccc1)c1ccccc1 > 100 µM (inactive)

I'd like to know its GI50. The compound in question is CCN(CC)c1ccc2c(c1)Oc1ccc(N(CC)CC)cc1C21Oc2ccccc2-c2c1c1ccccc1n2CC (stereo unspecified) 3.07 µM (inactive)

I'd like to know its GI50. The compound in question is C=CCN1CCC(OC(=O)C(O)(C#CC)C2CCCC2)CC1 (stereo unspecified) > 100 µM (inactive)

I'd like to know its GI50. The compound in question is O=S(=O)(c1ccccc1)n1c2ccc(Br)cc2c2nc3ccccc3nc21 > 100 µM (inactive)

I'd like to know its GI50. The compound in question is CCOCN1COCN(C)C1=O > 100 µM (inactive)

I'd like to know its GI50. The compound in question is O=C1/C(=C/c2ccc(Cl)cc2)Sc2scc(-c3cccc([N+](=O)[O-])c3)[n+]21 3.57 µM (inactive)

###

Measured GI50 by item
- System: OVCAR-4
- procedure_text: NCI tumour cell line growth inhibition, 48 h
Activity calls are given as the source filed them. Cut-off read from the data, not from the text of the source: active = GI50 up to about 1.1 µM and inactive = higher.

{"compound": "O=S(=O)(c1ccccc1)n1c2ccc(Br)cc2c2nc3ccccc3nc21", "target_of_assay": "OVCAR-4", "result": "> 100 µM (inactive)"}
{"compound": "CCOC(=O)c1nc2ccc(Cl)cc2c2c1Cc1ccccc1-2", "target_of_assay": "OVCAR-4", "result": "> 100 µM (inactive)"}
{"compound": "Cc1cc(N(CCC#N)CCC#N)ccc1/C=C1N=C(/C=C\\c2ccccc2)N(c2ccc(C(=O)O)cc2)C\\1=O", "target_of_assay": "OVCAR-4", "result": "> 100 µM (inactive)"}
{"compound": "C#CC1(O)C(COP(=O)(O)OC(COCCCCCCCCCCCCCCCCCC)COP(=O)(O)OCC2OC(n3cc(C)c(=O)[nH]c3=O)CC2N=[N+]=[N-])OC(n2ccc(N)nc2=O)C1O (stereo unspecified)", "target_of_assay": "OVCAR-4", "result": "4.45 µM (inactive)"}
{"compound": "Cc1cccc(NC(=O)C(=O)C(C(=O)c2ccccc2F)C2OC(=O)c3ccccc32)c1Cl (stereo unspecified)", "target_of_assay": "OVCAR-4", "result": "43.9 µM (inactive)"}

I'd like to know its GI50. The compound in question is CCCNC(=O)N1CC(CN2CCN(c3ccccc3)CC2)O/C1=N/C(=O)Nc1ccccc1 (stereo unspecified) 90.4 µM (inactive)

I'd like to know its GI50. The compound in question is COc1ccc(/C=C2\CCC(C)(CN(C)C)C2=O)cc1OC (stereo unspecified) > 100 µM (inactive)

I'd like to know its GI50. The compound in question is C=C1[C@H](OC(=O)C(C)C)[C@]23CC4(O)[C@@H]5[C@@]6(C)CCC[C@]57C([C@@H]2C[C@@]1(O)[C@H](O)[C@@H]73)N4C6 > 100 µM (inactive)

I'd like to know its GI50. The compound in question is CCc1cc(Cc2cc(CC)c(NC(=O)C(=O)CC(=O)c3sc(-c4cccnc4)nc3C)c(CC)c2)cc(CC)c1NC(=O)C(=O)CC(=O)c1sc(-c2cccnc2)nc1C > 100 µM (inactive)

I'd like to know its GI50. The compound in question is C#CCOCn1cnc2ncnc(Cl)c21 > 100 µM (inactive)

I'd like to know its GI50. The compound in question is CC(C)(C)c1cc(Cc2ccc(S(C)(=O)=O)cc2)c(O)c(C(C)(C)C)c1 14.4 µM (inactive)

I'd like to know its GI50. The compound in question is O=C(/C=C/c1ccc(O)c(O)c1)OCCOC(=O)/C=C/c1ccc(O)c(O)c1 39.1 µM (inactive)

I'd like to know its GI50. The compound in question is O=C(CSc1nnc(Cc2ccccc2)o1)Nc1ccc(Cl)cc1 58.7 µM (inactive)

I'd like to know its GI50. The compound in question is COc1ccc(NC(C)=O)cc1N1C(=O)/C(=C\c2cc(OC)c(OC)c(OC)c2)S(=O)(=O)C1c1ccccc1 (stereo unspecified) 31.6 µM (inactive)

I'd like to know its GI50. The compound in question is CC(Oc1ccc(Cl)cc1Cl)C(=O)NN1C(=O)CC(=O)N(c2ccccc2)C1=S (stereo unspecified) 45.8 µM (inactive)

I'd like to know its GI50. The compound in question is C#CC1/C(=C\C(=O)OC)CCCC1O (stereo unspecified) > 100 µM (inactive)

Entry source: ChEMBL document CHEMBL1201862
